Tested on: NCI-H460 lung
Experiment: NCI tumour cell line growth inhibition, 48 h
I'd appreciate it if you could supply TGI values for the items below.

Q. # return recorded TGI for input COc1ccc(C2CC(=O)Nc3c2c(C)nn3-c2nc3ccccc3[nH]2)cc1 (centres undefined)
A. 5.89 µM

Q. # return recorded TGI for input N#Cc1nc(-c2cccc(Br)c2)cc(-c2ccc(Nc3nc(N4CCCCC4)nc(N4CCCCC4)n3)cc2)c1N
A. 3.8 µM

Q. # return recorded TGI for input O=C1/C(=C/c2cccc([N+](=O)[O-])c2)CCCc2ccccc21
A. 34.1 µM

Q. # return recorded TGI for input N#Cc1c(-c2ccccc2)c(C#N)c(=O)n(NS(=O)(=O)c2ccccc2)c1O
A. > 100 µM

Q. # return recorded TGI for input CC(C)(C)Cn1c(N)nc2ccc(-c3[nH]c(C(C)(C)C)nc3-c3ccc(F)cc3)nc21
A. 26.5 µM

Q. # return recorded TGI for input C1CSCC2(COC2)CS1
A. > 100 µM

Q. # return recorded TGI for input O=C(Nc1ccccc1)N1CCNC1=S
A. > 100 µM

Q. # return recorded TGI for input CNC(=O)c1cc(Oc2ccc3nc(NC(=O)Nc4ccc(Cl)c(Cl)c4)sc3c2)ccn1
A. 5.32 µM

Q. # return recorded TGI for input Nc1ncc2c(n1)-c1ccccc1OC2NC1CC1 (centres undefined)
A. > 100 µM

Q. # return recorded TGI for input O=c1c2cc(I)ccc2nc(-c2cccs2)n1Nc1ccccc1
A. > 100 µM

Q. # return recorded TGI for input Cc1cccc(C(C)O)n1 (centres undefined)
A. > 100 µM

Q. # return recorded TGI for input COC(=O)c1nc(-c2ccc(Cl)c(Cl)c2)nc2ccccc12
A. > 100 µM

Q. # return recorded TGI for input Cc1cc2c(cn1)C(=O)OCC2
A. > 100 µM

Q. # return recorded TGI for input Clc1nc(Cl)c2ncn(C/C=C\Cn3cnc4c(Cl)nc(Cl)nc43)c2n1
A. 11.2 µM

Q. # return recorded TGI for input CCOC(=O)/C(C#N)=C(O)/C(=C/c1ccccc1Cl)NC(=O)c1ccccc1
A. > 100 µM

Q. # return recorded TGI for input COc1ccc(C2(CN(C)C)COc3cc(OC)c(OC)cc3C2=O)cc1OC (centres undefined)
A. > 100 µM

Q. # return recorded TGI for input COC(=O)C1=CN(CC2=CC(=O)C(C)=CC2=O)C=C(C(=O)OC)C1c1cccc(OC)c1OC
A. > 70.7 µM

Q. # return recorded TGI for input CC(=O)Nc1c(C)cc(OCC(=O)O)cc1C
A. > 100 µM

Q. # return recorded TGI for input CCc1ccccc1NC(=O)CCc1nc(=S)[nH][nH]1
A. > 100 µM

Q. # return recorded TGI for input CCOC(=O)CNC(=O)C(CSC(=O)N(O)c1ccc(Br)cc1)NC(=O)CCC(N)C(=O)OCC (centres undefined)
A. > 50 µM

Q. # return recorded TGI for input CCCCCCC(N)(CCCCCC)C(=O)Nn1c(C)ccc1C
A. > 100 µM

Q. # return recorded TGI for input Oc1cn(-c2ccc(Cl)cc2)nc1-c1nnc(Nc2ccccc2)o1
A. 39.6 µM

Q. # return recorded TGI for input O=C(O)Cc1cc(=O)oc2cc(O)c(Cl)cc12
A. > 100 µM

Q. # return recorded TGI for input Cc1c(-c2ccccc2)c(-c2ccc(OCCN(C)C)cc2)n2ccccc12
A. 7.3 µM

Q. # return recorded TGI for input CCOP(=O)(CS(C)=O)O[C@@H]1C[C@H](C)CC[C@H]1C(C)C (some centres undefined)
A. 17.6 µM

Q. # return recorded TGI for input CN1C(c2ccccc2)CC(=Nc2ccccc2)CC1c1ccccc1 (centres undefined)
A. 33.9 µM

Q. # return recorded TGI for input CC(=O)/C=C1/c2ccccc2N(C(C)=O)C1O (centres undefined)
A. > 100 µM

Q. # return recorded TGI for input O=c1c2cc(Br)ccc2oc2ccc(Br)cc12
A. > 100 µM

Q. # return recorded TGI for input C[C@]12CC[C@H]3[C@@H](CCC4=CC(=O)CC[C@@H]43)[C@@H]1CC[C@@H]2OC1(O)C(=O)c2ccccc2C1=O
A. > 100 µM

Q. # return recorded TGI for input O=c1cc/c(=N\Nc2ccccc2)c(=O)/c1=N/Nc1ccccc1
A. > 50 µM

Q. # return recorded TGI for input CCn1c(=O)c2c(=O)[nH][nH]c2c2ccccc21
A. > 100 µM

Q. # return recorded TGI for input COC(=O)/C=C/c1cc(OC)c2c(c1)C(C(=O)OC)C(c1ccc(OC)c(OC)c1)O2 (centres undefined)
A. > 100 µM

Q. # return recorded TGI for input COc1ccc(/C=C/C(=O)c2ccc(Nc3ncnc4ccccc34)cc2)cc1OC
A. > 100 µM

Q. # return recorded TGI for input O=C1N=C2c3c(sc4c3CCCC4)N=CN2C1N=Nc1ccc(Cl)cc1 (centres undefined)
A. 79.8 µM
